Listed here: compounds with reported Activity for inhibiting B-type flu viruses SI (selection index, SI = TC50/IC50) for B-type flu virus (jifang/97-13).

Q: Given the entry C=C(C(=O)OCc1ccccc1Br)C1CCC(C)C2CC(=O)C(C)=C2C1 (stereo not shown) [B-17, Rupestonic (o-bromobenzyl)-ester] , report its measured Activity for inhibiting B-type flu viruses SI (selection index, SI = TC50/IC50).
A: 2.2

Q: Fill blank: measured Activity for inhibiting B-type flu viruses SI (selection index, SI = TC50/IC50) of the compound NC(=O)c1ncn([C@@H]2O[C@H](CO)[C@@H](O)[C@H]2O)n1 [Ribavirin] is ____.
A: 132.1

Q: What value of Activity for inhibiting B-type flu viruses SI (selection index, SI = TC50/IC50) has been recorded for this entry: C=C(C(=O)OCc1ccc(Cl)cc1)C1CCC(C)C2CC(=O)C(C)=C2C1 (stereo not shown) [B-14, Rupestonic (p-chlorobenzyl)-ester]
A: 2.5

Q: Suppose we examine the compound C=C(C(=O)Nc1ccc(Cl)cc1)C1CCC(C)C2CC(=O)C(C)=C2C1 (stereo not shown) [A-2, N(4-chloro-phenyl)-Rupestonic amide] ; what Activity for inhibiting B-type flu viruses SI (selection index, SI = TC50/IC50) value has been reported?
A: 4.0

Q: Given the compound C=C(C(=O)OCC)C1CCC(C)C2CC(=O)C(C)=C2C1 (stereo not shown) [B-1, Ethyl Rupestonic ester] , what is its reported Activity for inhibiting B-type flu viruses SI (selection index, SI = TC50/IC50)?
A: 3.8

Q: Sample C=C(C(=O)O)[C@H]1CC[C@H](C)[C@@H]2CC(=O)C(C)=C2C1 [Compound 1, rupestonic acid] — what was its Activity for inhibiting B-type flu viruses SI (selection index, SI = TC50/IC50)?
A: 9.00

Q: Bench note: what Activity for inhibiting B-type flu viruses SI (selection index, SI = TC50/IC50) did C=C(C(=O)OCc1ccc([N+](=O)[O-])cc1)C1CCC(C)C2CC(=O)C(C)=C2C1 (stereo not shown) [B-15, Rupestonic (p-nitryl-benzyl)-ester] show?
A: 4.6
